Target Under Test: T1, human neuromedin U receptor NMUR1 (human, UniProt Q9HB89 1-426)
T1 sequence (looked up): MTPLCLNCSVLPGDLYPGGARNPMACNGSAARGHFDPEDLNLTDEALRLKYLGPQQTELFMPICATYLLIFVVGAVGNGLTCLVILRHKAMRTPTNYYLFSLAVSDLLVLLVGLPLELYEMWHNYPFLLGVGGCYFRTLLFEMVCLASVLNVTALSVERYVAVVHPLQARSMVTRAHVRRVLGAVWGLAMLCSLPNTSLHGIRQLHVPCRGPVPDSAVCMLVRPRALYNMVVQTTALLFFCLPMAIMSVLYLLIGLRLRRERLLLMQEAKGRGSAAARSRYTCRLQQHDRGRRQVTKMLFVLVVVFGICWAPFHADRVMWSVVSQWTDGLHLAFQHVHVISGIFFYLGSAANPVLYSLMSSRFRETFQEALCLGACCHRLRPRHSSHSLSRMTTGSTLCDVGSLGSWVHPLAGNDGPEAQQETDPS
Assay: cell-based or functional assay
Bridges are numbered along the chain shown (N, C = ends). Where no end group is shown, it is not given here. [ ]: non-standard residue; d: D form. The star is where a group is joined. PalS‑X = 3,5-bis(methyl-S-cysteinyl)-1-(methyl-S-palmityl)-benzene joining the two Cys; Ida^NHPal = iminodiacetic acid mono-N-palmityl amide, CCCCCCCCCCCCCCCCNC(=O)CNCC(=O)*; dPEG12 = 40-amino-4,7,10,13,16,19,22,25,28,31,34,37-dodecaoxotetradecanoic acid; Oic = O=C(O)[C@@H]1C[C@@H]2CCCC[C@@H]2N1; Palmitoyl = CCCCCCCCCCCCCCCC(=O)*; Tic = O=C(O)[C@@H]1Cc2ccccc2CN1; Aib = CC(C)(N)C(=O)O; Ahx = NCCCCCC(=O)O
Recorded Metric: NMUR1 EC50 [nM], calcium mobilization assay
A complete answer gives the number followed by the unit.

Binder	Readout Value
Palmitoyl-[dPEG12][Aib]FLFRPRN-NH2 [NM4]	1.51 nM
{Nic-Ida^NHPal}-[Aib]FLFRPRN-NH2 [NM4A-Nic]	43.6 nM
Palmitoyl-[Aib]FLFRPRN-NH2 (SMILES CCCCCCCCCCCCCCCC(=O)NC(C)(C)C(=O)N[C@@H](Cc1ccccc1)C(=O)N[C@@H](CC(C)C)C(=O)N[C@@H](Cc1ccccc1)C(=O)N[C@@H](CCCNC(=N)N)C(=O)N1CCC[C@H]1C(=O)N[C@@H](CCCNC(=N)N)C(=O)N[C@@H](CC(N)=O)C(N)=O) [NM3]	331 nM
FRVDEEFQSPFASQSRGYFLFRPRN-NH2 [human neuromedin U]	1.12 nM
{Palmitoyl-dPEG12}-[Aib]FLFRPRN[Aib]-NH2 [NM7]	170 nM
Ac-FLFRPRN-NH2 [NM1]	0.58 nM

Name the recorded NMUR1 EC50 [nM], calcium mobilization assay for {Ida^NHPal}-[Aib]FLFRPRN-NH2 [NM4A] .
7.41 nM

Name the recorded NMUR1 EC50 [nM], calcium mobilization assay for [Aib]FLFRPRN-NH2 (N-terminus assumed; SMILES CC(C)C[C@H](NC(=O)[C@H](Cc1ccccc1)NC(=O)C(C)(C)N)C(=O)N[C@@H](Cc1ccccc1)C(=O)N[C@@H](CCCNC(=N)N)C(=O)N1CCC[C@H]1C(=O)N[C@@H](CCCNC(=N)N)C(=O)N[C@@H](CC(N)=O)C(N)=O) [NM2] .
0.63 nM

Name the recorded NMUR1 EC50 [nM], calcium mobilization assay for [Aib]FLFRPRN[Aib]-NH2 (N-terminus assumed; SMILES CC(C)C[C@H](NC(=O)[C@H](Cc1ccccc1)NC(=O)C(C)(C)N)C(=O)N[C@@H](Cc1ccccc1)C(=O)N[C@@H](CCCNC(=N)N)C(=O)N1CCC[C@H]1C(=O)N[C@@H](CCCNC(=N)N)C(=O)N[C@@H](CC(N)=O)C(=O)NC(C)(C)C(N)=O) [NM5] .
58.9 nM

Name the recorded NMUR1 EC50 [nM], calcium mobilization assay for C[Ahx]FLFR[Tic]RN[Ahx]C-NH2 (cysteine pairing not given here) [NM10] .
3980 nM

Name the recorded NMUR1 EC50 [nM], calcium mobilization assay for C[Ahx]FLFRPRN[Ahx]C-NH2 (cysteine pairing not given here) [NM8] .
186 nM

Name the recorded NMUR1 EC50 [nM], calcium mobilization assay for C[Ahx]FLFR[Oic]RN[Ahx]C-NH2 (cysteine pairing not given here) [NM9] .
1410 nM

Name the recorded NMUR1 EC50 [nM], calcium mobilization assay for C[Ahx]FLFR[Tic]RN[Ahx]C-NH2 (linker 1-11 via PalS‑X) [NM16] .
3980 nM
